Every entry's value here was drawn from PubChem BioAssay (NCATS).

- Test system: CP252
- Experiment notes: qHTS profiling for inhibitors of Plasmodium falciparum proliferation (AID 504749); note: nearly all actives have a fitted effect of over 60% in size
- Condition description: P. falciparum in erythrocytes, SYBR Green DNA, 72 h; series mostly up to 28.7 µM
Records with an inconclusive call do not appear. The source made the active and inactive calls. Calls come from the whole dose curve; as a rule, active = well fitted inhibition curve with a large enough effect; inconclusive = small, poorly fitted or top-dose-only effect; inactive = flat fitted curve, though single readings scatter.
Pick from 1 = active, -1 = inactive when you respond.

Below are worked cases with known answers.
{"Molecule": "Cn1sc(Cl)cc1=O", "Target under test": "CP252", "Assigned label": -1}
{"Molecule": "CC(=O)OC1CN2CCC1CC2 (stereo not given)", "Target under test": "CP252", "Assigned label": -1}
{"Molecule": "CCCCCl", "Target under test": "CP252", "Assigned label": -1}

Record lookup: outcome of this test for `CCOP(=O)(OCC)O/C(=C/Cl)c1ccc(Cl)cc1Cl` ? -1

Outcome logged for C[N+]1(C)C2CCC1CC(OC(=O)c1c[nH]c3ccccc13)C2 (stereo not given) in this assay: -1

// param item: `CC(C)CCON=O` ; yields the recorded call -1

Write down the call the test reported for this molecule. Item: `Clc1ccccc1Cl` -1

Per the assay record, what outcome was assigned to `O=[N+]([O-])c1ccccc1` ? -1

Test call for this molecule, please: CCCC(C)C1(CC)C(=O)NC(=O)NC1=O (stereo not given) -1

Hi team, can someone confirm the assay call for `N#CC1(N2CCCCC2)CCCCC1` ? -1

What did the test return for `c1ccc2cc(CC3=NCCN3)ccc2c1` ? -1

Write down the call the test reported for this molecule. Item: `CCCCCCCCOC(=O)c1ccccc1C(=O)OCCCCCCCC` -1

What is the recorded call for this molecule in the test? `C[C@@H](Cc1ccccc1)NCCC(c1ccccc1)c1ccccc1` -1

Any idea what this test logged for `Oc1cccc[c]1[Hg][Cl]` ? 1

How did this test come out for `Cc1sc2ccccc2c1CC1=NCCN1` ? -1
